# tested target: T1, rhesus monkey KLB (+N-ter FLAG) (rhesus monkey, UniProt Q86Z14 53-992 (human entry))
# T1 construct: expressed from KLB cDNA on HEK293T cells and read by FACS
# T1 chain: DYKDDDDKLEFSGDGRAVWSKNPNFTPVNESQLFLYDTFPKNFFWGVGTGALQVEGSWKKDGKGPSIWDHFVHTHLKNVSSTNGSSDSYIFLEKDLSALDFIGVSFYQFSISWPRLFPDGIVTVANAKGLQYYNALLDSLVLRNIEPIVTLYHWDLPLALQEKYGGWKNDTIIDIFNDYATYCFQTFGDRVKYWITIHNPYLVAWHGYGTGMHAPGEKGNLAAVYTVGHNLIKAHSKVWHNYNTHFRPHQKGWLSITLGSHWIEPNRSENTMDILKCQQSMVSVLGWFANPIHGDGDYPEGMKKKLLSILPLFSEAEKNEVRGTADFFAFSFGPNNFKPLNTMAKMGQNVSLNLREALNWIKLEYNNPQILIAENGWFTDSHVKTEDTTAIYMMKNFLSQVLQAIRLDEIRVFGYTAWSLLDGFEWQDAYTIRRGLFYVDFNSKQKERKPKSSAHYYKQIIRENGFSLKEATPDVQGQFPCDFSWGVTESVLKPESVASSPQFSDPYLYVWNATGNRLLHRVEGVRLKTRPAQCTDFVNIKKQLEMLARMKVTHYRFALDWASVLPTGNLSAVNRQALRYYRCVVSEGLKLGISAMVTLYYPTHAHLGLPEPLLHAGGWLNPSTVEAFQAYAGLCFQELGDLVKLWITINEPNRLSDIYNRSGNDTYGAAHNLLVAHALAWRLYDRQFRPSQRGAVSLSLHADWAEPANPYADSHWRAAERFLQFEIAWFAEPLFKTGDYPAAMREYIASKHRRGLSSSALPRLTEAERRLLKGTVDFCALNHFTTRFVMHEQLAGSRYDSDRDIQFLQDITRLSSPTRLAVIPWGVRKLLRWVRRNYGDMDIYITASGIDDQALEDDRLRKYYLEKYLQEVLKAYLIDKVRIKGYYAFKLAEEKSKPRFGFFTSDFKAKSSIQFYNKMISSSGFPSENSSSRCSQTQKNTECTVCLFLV
# assay summary: FACS on transfected HEK293T cells

# binder, binding result
rows = [
    ("8E1 (antibody, V domains shown, murine hybridoma-derived anti-KLB antibody) VH: EVQLQQSGAELVKPGASVKLSCTAADFNIKDTYMHWVKQRPEQGLEWIGRIDPSNGNAKYDPKFQGKASITADSSSNTAYLHLSSLTSEDTAVYYCASRALGNGYALGYWGQGTSVTVSS VL: DIQMTQSSSYLSVSLGGSVTITCKASDHINNWLAWYQQKPGNAPRLLIYGTTNLETGVPSRFSGSGSGRDYILSITSLQSEDVASYYCQQYWNTPFTFGSGTKLEIK", "binds"),
    ("14E6 (antibody, V domains shown, murine hybridoma-derived anti-KLB antibody) VH: EVPLQQSGPELVKPGATVKISCKPSGDTFTEYTMNWVRQSHGKSLEWIGGINPNNGETSYNQKFKGKATLTVDKSSSTAFMDLRILTSEDSAVYFCARKTTNYWGQGTTLIVSS VL: DIQMTQSPSSLSASLGERVSLTCRASQEISGYLSWLQQKPDGTIKRLIYAASTLDSGVPRRFSGSRSGSDYSLTISSLESEDFADYYCLQYGSYPWTFGGGTKLELK", "binds"),
    ("14C6 (antibody, V domains shown, murine hybridoma-derived anti-KLB antibody) VH: QIQLQQSGAELMKPGASVRMSCKASGYTFSSYWIEWVKQRSGHGLEWIGEIFPGGGSTIYNENFRDKATFTADTSSNTAYMQLSSLTSEDSAVYFCARRGYYDAAWFDYWGQGTLVTVSA VL: QIVLTQSPAIMSASPGERVTLTCSASSSLSSSYLYWYQQKPGSSPKLWIYGASNLASGVPGRFSGSGSGTSYSLTISSMEAEDAASYFCHQWSSYPLTFGSGTKLELK", "binds"),
]
